Target: T1, DFNB31_1, Q9P202
T1 sequence (Q9P202 135-233, limits assumed, looked up): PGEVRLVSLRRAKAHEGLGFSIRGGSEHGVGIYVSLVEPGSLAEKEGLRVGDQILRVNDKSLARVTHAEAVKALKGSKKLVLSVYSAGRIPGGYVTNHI
Test: holdup assay
Set-up: key: below the threshold = too weak to quantify, mostly under pKd 3.1 to 4
Settings: plain residues with an end cap or a label only (N-terminal biotin on a linker: ado-ado)
readout type: pKd
Write the number on its own, no unit after it.

# input Look up pKd for this binder: HLSTRQGTCV [ATRNL1, Q5VV63]
# output 3.51

# input // query: LPPPESESKV [KCNJ9, Q92806]
# output 4.01
